system.under.test: T1, human wt-ERα LBD (estrogen receptor alpha ligand-binding domain, amino acids 302-552) (human, UniProt P03372 302-552)
T1 sequence (looked up): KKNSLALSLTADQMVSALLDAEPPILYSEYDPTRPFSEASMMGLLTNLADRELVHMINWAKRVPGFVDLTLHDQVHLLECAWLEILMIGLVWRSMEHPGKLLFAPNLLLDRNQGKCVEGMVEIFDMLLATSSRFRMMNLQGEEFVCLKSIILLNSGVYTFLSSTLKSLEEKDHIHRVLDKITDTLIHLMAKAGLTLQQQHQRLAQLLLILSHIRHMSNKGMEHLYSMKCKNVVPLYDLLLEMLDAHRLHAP
protocol.description: fluorescence polarisation; fluorescence anisotropy; 4 nM fluorescein-SRC-1 NR2 peptide, LBD diluted 2-fold from 10 uM (ERα) or 20 uM (ERβ); with α-ZA at 20 uM (ERα) or 40 uM (ERβ); 20 mM Tris pH 8.0, 150 mM NaCl, 5 mM DTT, 10% glycerol
measurement.context: both partners purified
Where no end group is shown, it is not given here. fluorescein = fluorescein label on the N-terminus of the peptide
readout.name: pKd
Conceptually, pKd converts a concentration in mol/L into minus its log10.

Determine from records and report pKd for fluorescein-RHKILHRLLQEGS (also called SRC-1 NR2 peptide; fluorescein-labeled SRC-1 NR2 peptide; source: bought: EZbiolab) [fluorescein-RHKILHRLLQEGS peptide corresponding to the NR box 2-binding motif of SRC-1]
6.48
